System: panel of HIV-1 isolates in human PBMCs
Experiment: PBMC antiviral assay against a panel of HIV-1 isolates (RT activity)
Assay type: cell-based
Conditions: Human immunodeficiency virus 1, PBMC, isolate 93BR029, PBMC

[
  {
    "COMPOUND": "C=C(C)[C@@H]1CC[C@]2(CCNCCN3CCN(S(C)(=O)=O)CC3)CC[C@]3(C)[C@H](CC[C@@H]4[C@@]5(C)CC[C@H](OC(=O)CC(C)(C)C(=O)O)C(C)(C)[C@@H]5CC[C@]43C)[C@@H]12 [Compound 51ff]",
    "IC50": "1.1 nM"
  },
  {
    "COMPOUND": "C=C(C)[C@@H]1CC[C@]2(CCNCCN3CCN(Cc4cccc(F)c4)CC3)CC[C@]3(C)[C@H](CC[C@@H]4[C@@]5(C)CC[C@H](OC(=O)CC(C)(C)C(=O)O)C(C)(C)[C@@H]5CC[C@]43C)[C@@H]12 [Compound 51m]",
    "IC50": "10.8 nM"
  }
]

# credit: patent US11236122B2
